Attribution: the supplement of paper PMC10567573

B1: VTI1B (parent)
chain: NKLLLSIIILLELAILGGLVYYKF

- Variants of: B1
- testDetails: protein stability index of a GFP-peptide fusion (GPS, HEK-293T) (PSI 1-6); higher = more stable;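 also: lentivirally expressed fusions sorted by FACS into six bins by GFP to DsRed ratio, PSI derived from sequencing read proportions per bin multiplied by bin number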
- conditionParameters: c terminus: a fixed tail appended
I would appreciate it if you labelled entries T when protein stability index is 3 or higher, otherwise F.

seqText: NKLLLSIIILLEFAILGGLVYYKF [L13F]
labelValue: T

seqText: NKLLLSIIILLELAILGGTVYYKF [L19T]
labelValue: F

In: In plain terms: is recorded protein stability index at least 3 for PKLLLSIIILLELAILGGLVYYKF [N1P] ?
Out: F

In: Okay, and NKLLLSIIILLELAILGDLVYYKF [G18D] ?
Out: F

In: Okay, and NKLDLSIIILLELAILGGLVYYKF [L4D] ?
Out: T

In: Okay, and NKLLLSIIILLELAILGGLVYIKF [Y22I] ?
Out: T

In: Okay, and NKLLLQIIILLELAILGGLVYYKF [S6Q] ?
Out: T

In: Okay, and NKLTLSIIILLELAILGGLVYYKF [L4T] ?
Out: F
